Cited source: ChEMBL document CHEMBL5291721

systemName: Vasopressin V1a receptor (Homo sapiens, UniProt P37288); further: assay procedure not described here
Sequence (P37288 whole entry): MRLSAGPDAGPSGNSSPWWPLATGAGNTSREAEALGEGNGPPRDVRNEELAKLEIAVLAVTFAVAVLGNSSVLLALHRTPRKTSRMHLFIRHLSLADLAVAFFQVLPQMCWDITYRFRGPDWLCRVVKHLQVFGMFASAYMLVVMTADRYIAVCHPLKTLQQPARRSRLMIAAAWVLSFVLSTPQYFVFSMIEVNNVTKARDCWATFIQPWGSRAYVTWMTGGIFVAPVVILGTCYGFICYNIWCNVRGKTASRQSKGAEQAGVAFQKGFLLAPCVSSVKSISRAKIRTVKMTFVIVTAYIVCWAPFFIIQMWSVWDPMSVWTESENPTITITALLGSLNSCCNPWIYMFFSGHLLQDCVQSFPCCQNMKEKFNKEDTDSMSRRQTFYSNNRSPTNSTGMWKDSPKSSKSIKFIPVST
Recorded AC50 by entry

# count of solved cases: 5
Cc1ccc(S(=O)(=O)NC(=O)N[C@H]2[C@H]3CC[C@@](C)([C@H]2O)C3(C)C)cc1 [GLIBORNURIDE] = > 30 µM
C[C@]12C=CC(=O)C=C1CC[C@@H]1[C@@H]2[C@@H](O)C[C@@]2(C)[C@H]1CC[C@]2(O)C(=O)CO [PREDNISOLONE] = > 30 µM
CN(C)CCCC1(c2ccc(F)cc2)OCc2cc(C#N)ccc21 (stereo unspecified) [CITALOPRAM] = > 10 µM
O=C1[C@@H]2[C@H]3CC[C@H](C3)[C@@H]2C(=O)N1C[C@@H]1CCCC[C@H]1CN1CCN(c2nsc3ccccc23)CC1 [LURASIDONE] = > 30 µM
COc1ccc(-n2nc(C(N)=O)c3c2C(=O)N(c2ccc(N4CCCCC4=O)cc2)CC3)cc1 [APIXABAN] = > 30 µM

Report AC50 for CN(C)[C@@H]1C(O)=C(C(=O)NCN2CCCC2)C(=O)[C@@]2(O)C(O)=C3C(=O)c4c(O)cccc4[C@@](C)(O)[C@H]3C[C@@H]12 [ROLITETRACYCLINE] please. > 10 µM

Moving on to COC(=O)[C@H]1[C@H]2C[C@@H]3c4[nH]c5ccccc5c4CCN3C[C@H]2C[C@@H](OC(=O)c2cc(OC)c(OC)c(OC)c2)[C@@H]1OC [DESERPIDINE] > 30 µM
